Catalogue of EC50 readings, one per entry.
- subject of test: mGlu3 (Rattus norvegicus (Rat))
- assay notes: mGlu3 GIRK thallium flux assay
- measurement setup: read-out: mGlu3 PAM EC50; PAM mode; test compound, then EC20 glutamate […] later in the presence of thallium; mean ± SEM

| compound smiles | subject of test | operator symbol | EC50 [µM] |
| --- | --- | --- | --- |
| COc1ccc(C(=O)NS(C)(=O)=O)cc1OCCCCOc1ccc(C(=O)CC(C)(C)C)c(O)c1C | mGlu3 (Rattus norvegicus (Rat)) | = | 0.265 |
| Cc1c(OCCCCOc2ccc(C#N)cc2)ccc(C(=O)CC2CCCC2)c1C | mGlu3 (Rattus norvegicus (Rat)) | > | 30 |
| Cc1c(OCc2cccc(-c3cccc(C(=O)O)c3)n2)ccc(C(=O)CC(C)(C)C)c1O | mGlu3 (Rattus norvegicus (Rat)) | = | 0.967 |
| CONC(=O)c1ccc(OC)c(OCCCCOc2ccc(C(=O)CC(C)(C)C)c(O)c2C)c1 | mGlu3 (Rattus norvegicus (Rat)) | = | 6.6 |
| Cc1c(OCCCCOc2ccccc2C(=O)O)ccc(C(=O)CC(C)C)c1O | mGlu3 (Rattus norvegicus (Rat)) | > | 30 |
| CC(=O)c1ccc(OCCCCOc2cccc(C(=O)O)c2C)c(C)c1O | mGlu3 (Rattus norvegicus (Rat)) | > | 30 |
| COc1ccc(-c2cccc(COc3ccc(C(=O)CC(C)(C)C)c(O)c3C)c2)cc1C(=O)O | mGlu3 (Rattus norvegicus (Rat)) | = | 8.41 |
| CCC(=O)c1ccc(OCCCCOc2ccc(C(=O)O)cc2OC)c(C)c1O | mGlu3 (Rattus norvegicus (Rat)) | > | 30 |
| Cc1c(OCc2cccc(-c3ccc(C(=O)O)cc3)c2)ccc(C(=O)CC(C)(C)C)c1O | mGlu3 (Rattus norvegicus (Rat)) | = | 1.64 |
| Cc1c(OCCCCOc2ccc(C(=O)O)cc2)ccc(C(=O)CC2CCCC2)c1C | mGlu3 (Rattus norvegicus (Rat)) | > | 30 |

* * *

- subject of test: mGlu3 (Rattus norvegicus (Rat), UniProt P31422)
- Sequence (P31422 23-879): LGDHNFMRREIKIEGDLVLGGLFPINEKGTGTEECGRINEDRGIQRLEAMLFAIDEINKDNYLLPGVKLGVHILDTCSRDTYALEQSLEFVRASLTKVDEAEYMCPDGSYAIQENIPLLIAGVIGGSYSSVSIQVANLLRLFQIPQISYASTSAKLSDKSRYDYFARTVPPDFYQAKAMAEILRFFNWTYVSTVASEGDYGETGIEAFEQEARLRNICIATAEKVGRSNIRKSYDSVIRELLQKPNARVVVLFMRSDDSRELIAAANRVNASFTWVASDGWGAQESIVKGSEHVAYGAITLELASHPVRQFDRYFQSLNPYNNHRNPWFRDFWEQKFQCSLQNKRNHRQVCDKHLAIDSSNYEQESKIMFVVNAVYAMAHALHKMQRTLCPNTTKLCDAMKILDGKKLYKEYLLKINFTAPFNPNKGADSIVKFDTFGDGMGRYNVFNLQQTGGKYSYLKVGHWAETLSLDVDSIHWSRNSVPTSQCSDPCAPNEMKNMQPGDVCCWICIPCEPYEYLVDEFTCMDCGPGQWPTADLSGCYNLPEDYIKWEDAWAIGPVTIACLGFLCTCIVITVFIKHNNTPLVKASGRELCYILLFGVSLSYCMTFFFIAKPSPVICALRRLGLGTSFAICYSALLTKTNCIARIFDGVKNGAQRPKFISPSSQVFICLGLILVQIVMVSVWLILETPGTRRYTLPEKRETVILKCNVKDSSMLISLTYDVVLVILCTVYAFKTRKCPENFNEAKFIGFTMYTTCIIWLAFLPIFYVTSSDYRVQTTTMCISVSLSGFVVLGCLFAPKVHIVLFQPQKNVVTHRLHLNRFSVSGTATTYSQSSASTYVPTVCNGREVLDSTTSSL
- assay notes: mGlu3 GIRK thallium flux assay;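 also: kinetic fluorescence slope read shortly after thallium plus agonist addition, scaled between vehicle and maximal agonist control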
- measurement setup: read-out: mGlu3 PAM EC50; PAM mode; test compound, then EC20 glutamate […] later in the presence of thallium; mean ± SEM
endpoint label: EC50

| molecule | assay value |
| --- | --- |
| Cc1c(OCCCCOc2ccccc2C(=O)O)ccc(C(=O)CC2CCCC2)c1C [Compound 27] | > 30 µM |
| Cc1c(OCc2ccc(-c3cccc(C(=O)O)c3)cc2)ccc(C(=O)CC(C)(C)C)c1O [compound 142] | 2.2 µM |
| COC(=O)c1ccc(OCc2cccc(COc3ccc(C(=O)CC4CCCC4)c(C)c3C)c2)cc1 [compound 155] | > 30 µM |
| Cc1c(OCCCCOc2ccc(C#N)cc2)ccc(C(=O)CC(C)C)c1C [compound 77] | > 30 µM |
| COC(=O)c1ccc(OCc2cccc(COc3ccc(C(=O)CC(C)C)c(O)c3C)c2)cc1 [compound 119] | > 30 µM |
| Cc1c(OCc2cccc(-c3cc(C(=O)O)cc([N+](=O)[O-])c3)c2)ccc(C(=O)CC(C)(C)C)c1O [compound 146] | 2.13 µM |
| Cc1c(OCc2cccc(-c3cnccc3C(=O)O)c2)ccc(C(=O)CC(C)(C)C)c1O [Compound 180] | > 30 µM |
| CC(=O)c1ccc(OCCCCOc2ccc(C(=O)O)cc2C)c(C)c1O [Compound 56] | > 30 µM |
| Cc1c(OCc2cccc(-c3ccc(Cl)c(C(=O)O)c3)c2)ccc(C(=O)CC(C)(C)C)c1O [compound 133] | 1.71 µM |
| Cc1c(OCCCCOc2ccccn2)ccc(C(=O)CC(C)C)c1C [Compound 183] | > 30 µM |
| COC(=O)c1ccc(OCc2cccc(COc3ccc(C(=O)CC(C)C)c(C)c3C)c2)cc1 [compound 116] | > 30 µM |
| Cc1c(OCCCCOc2ccc(F)c(C(=O)O)c2)ccc(C(=O)CC2CCCC2)c1C [Compound 35] | > 30 µM |
| Cc1c(OCc2cnc(-c3cccc(C(=O)O)c3)cn2)ccc(C(=O)CC(C)(C)C)c1O [compound 163] | 0.268 µM |
| CC(=O)c1ccc(OCCCCOc2ccc(F)c(C(=O)O)c2)c(C)c1O [Compound 55] | > 30 µM |
| Cc1c(OCc2cccc(-c3ccc(Cl)c(C(=O)O)c3)c2)ccc(C(=O)CC(C)C)c1O [compound 172] | > 10 µM |
| Cc1c(OCCCCOc2ccc(CCC(=O)O)c(O)c2)ccc(C(=O)CC(C)C)c1O [Compound 5, reference compound] | > 30 µM |
| Cc1c(OCc2cccc(-c3ccc(Cl)c(C(=O)O)c3)c2)ccc(C(=O)CC2CCCC2)c1C [compound 171] | > 30 µM |
| COc1cc(C(=O)O)ccc1OCCCCOc1ccc(C(C)=O)c(O)c1C [Compound 52] | > 30 µM |
| Cc1c(OCc2cccc(-c3cccc(C(=O)O)c3)c2)ccc(C(=O)CC(C)C)c1O [compound 137] | 0.642 µM |
| COc1ccc(C#N)cc1OCCCCOc1ccc(C(=O)CC(C)(C)C)c(O)c1C [compound 91] | > 30 µM |
| Cc1c(OCCCCOCc2cccc(-c3cccc(C(=O)O)c3)c2)ccc(C(=O)CC(C)(C)C)c1O [Compound 187] | 3.07 µM |
| Cc1c(OCCCCSc2ccncc2)ccc(C(=O)CC2CCCC2)c1C [Compound 188] | > 30 µM |
| COC(=O)c1ccc(OCCCCOc2ccc(C(=O)CC3CCCC3)c(C)c2C)cc1 [Compound 15] | > 30 µM |
| Cc1c(OCc2cccc(-c3cccc(C(=O)O)c3)c2)ccc(C(=O)CCC(C)(C)C)c1O [compound 148] | 2.58 µM |
| Cc1c(OCCCCOc2ccc(F)c(C(=O)O)c2)ccc(C(=O)CC(C)C)c1C [Compound 34] | > 30 µM |
| Cc1c(OCc2cccc(-c3occc3C(=O)O)c2)ccc(C(=O)CC(C)(C)C)c1O [Compound 178] | 2.87 µM |
